Values were extracted from ChEMBL document CHEMBL4616678.

- Assayed target: Cannabinoid receptor 1 (Homo sapiens, UniProt P21554)
- Sequence (P21554 whole entry): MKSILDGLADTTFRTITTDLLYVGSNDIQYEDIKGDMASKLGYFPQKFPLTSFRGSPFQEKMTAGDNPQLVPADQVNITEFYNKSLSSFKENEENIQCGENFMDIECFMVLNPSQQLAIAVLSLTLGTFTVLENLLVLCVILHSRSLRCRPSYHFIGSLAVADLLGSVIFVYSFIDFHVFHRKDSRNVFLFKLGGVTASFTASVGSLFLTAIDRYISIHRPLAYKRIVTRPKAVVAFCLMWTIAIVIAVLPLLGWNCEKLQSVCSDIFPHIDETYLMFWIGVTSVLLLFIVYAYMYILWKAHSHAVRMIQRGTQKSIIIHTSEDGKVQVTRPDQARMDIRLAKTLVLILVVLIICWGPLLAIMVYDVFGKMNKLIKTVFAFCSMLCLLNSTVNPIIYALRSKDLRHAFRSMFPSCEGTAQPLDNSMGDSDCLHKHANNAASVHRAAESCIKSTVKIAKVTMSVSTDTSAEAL
- Assay explanation: Displacement of [3H]-CP-55,940 from recombinant human CB1R expressed in HEK293 cell membranes
Each entry below lists one item and its recorded Ki value.
Reported metric: Ki

compound=CCCCn1c(=O)c(C(=O)NC23CC4CC(CC(C4)C2)C3)c(O)c2nn(CCO)cc21 assayed_target="Cannabinoid receptor 1 (Homo sapiens, UniProt P21554)" reported_metric=Ki recorded_result="> 1000 nM"
compound="CCCCN1C(=O)C(C(=O)NC23CC4CC(CC(O)(C4)C2)C3)=C(O)C2C1C=NN2C (stereo not drawn)" assayed_target="Cannabinoid receptor 1 (Homo sapiens, UniProt P21554)" reported_metric=Ki recorded_result="86.9 nM"
compound=CCCCn1c(=O)c(C(=O)NC23CC4CC(CC(O)(C4)C2)C3)c(O)c2nn(C)cc21 assayed_target="Cannabinoid receptor 1 (Homo sapiens, UniProt P21554)" reported_metric=Ki recorded_result="> 1000 nM"
compound=CC(=O)OCCCCn1c(=O)c(C(=O)NC23CC4CC(CC(C4)C2)C3)c(O)c2nn(C)cc21 assayed_target="Cannabinoid receptor 1 (Homo sapiens, UniProt P21554)" reported_metric=Ki recorded_result="> 1000 nM"
compound="CCCCN1C(=O)C(C(=O)NC23CC4CC(CC(C4)C2)C3)=C(O)C2C1C=NN2C (stereo not drawn)" assayed_target="Cannabinoid receptor 1 (Homo sapiens, UniProt P21554)" reported_metric=Ki recorded_result="69 nM"
compound="CCCCCN1C(=O)C(C(=O)NC23CC4CC(CC(C4)C2)C3)=C(O)C2C1C=NN2C (stereo not drawn)" assayed_target="Cannabinoid receptor 1 (Homo sapiens, UniProt P21554)" reported_metric=Ki recorded_result="56 nM"
compound=CCCCCn1c(=O)c(C(=O)NC23CC4CC(CC(C4)C2)C3)c(O)c2nn(CCO)cc21 assayed_target="Cannabinoid receptor 1 (Homo sapiens, UniProt P21554)" reported_metric=Ki recorded_result="108 nM"
compound=CCCn1c(=O)c(C(=O)NC23CC4CC(CC(C4)C2)C3)c(O)c2nn(CCO)cc21 assayed_target="Cannabinoid receptor 1 (Homo sapiens, UniProt P21554)" reported_metric=Ki recorded_result="> 1000 nM"

###

The following compounds are listed with their measured solubility kinetic values.
- Assay explanation: Kinetic solubility of the compound at pH 1.0 by HPLC-UV method
- Assay type: physicochemical
- Experimental context: buffer, read-out: Kinetic_solubility
Reported metric: solubility kinetic

compound=CCCn1c(=O)c(C(=O)NC23CC4CC(CC(C4)C2)C3)c(O)c2nn(CCO)cc21 recorded_result="3.4 µg/mL"
compound=Cn1cc2c(n1)c(O)c(C(=O)NC13CC4CC(CC(C4)C1)C3)c(=O)n2CCCCF recorded_result="0.6 µg/mL"
compound="CN1N=CC2C1C(O)=C(C(=O)NC13CC4CC(CC(C4)C1)C3)C(=O)N2CCCCF (stereo not given)" recorded_result="0.7 µg/mL"
compound="CN1N=CC2C1C(O)=C(C(=O)NC13CC4CC(CC(O)(C4)C1)C3)C(=O)N2CCCCF (stereo not given)" recorded_result="9.1 µg/mL"
compound=Cn1cc2c(n1)c(O)c(C(=O)NC13CC4CC(CC(C4)C1)C3)c(=O)n2CCCCO recorded_result="2.53 µg/mL"
compound="CCCCCN1C(=O)C(C(=O)NC23CC4CC(CC(C4)C2)C3)=C(O)C2C1C=NN2C (stereo not given)" recorded_result="0.4 µg/mL"
compound=Cn1cc2c(n1)c(O)c(C(=O)NC13CC4CC(CC(O)(C4)C1)C3)c(=O)n2CCCCF recorded_result="39.9 µg/mL"
compound=CCCCn1c(=O)c(C(=O)NC23CC4CC(CC(O)(C4)C2)C3)c(O)c2nn(C)cc21 recorded_result="15 µg/mL"
compound=CCCCn1c(=O)c(C(=O)NC23CC4CC(CC(C4)C2)C3)c(O)c2nn(CCO)cc21 recorded_result="1.6 µg/mL"
compound=CCCCn1c(=O)c(C(=O)NC23CC4CC(CC(C4)C2)C3)c(O)c2nn(C)cc21 recorded_result="0.23 µg/mL"
compound=CCCCCn1c(=O)c(C(=O)NC23CC4CC(CC(O)(C4)C2)C3)c(O)c2nn(CCO)cc21 recorded_result="9.7 µg/mL"
compound="CCCCN1C(=O)C(C(=O)NC23CC4CC(CC(C4)C2)C3)=C(O)C2C1C=NN2C (stereo not given)" recorded_result="0.13 µg/mL"
compound=CCCCCn1c(=O)c(C(=O)NC23CC4CC(CC(C4)C2)C3)c(O)c2nn(C)cc21 recorded_result="2.9 µg/mL"
compound="CCCCN1C(=O)C(C(=O)NC23CC4CC(CC(O)(C4)C2)C3)=C(O)C2C1C=NN2C (stereo not given)" recorded_result="2.1 µg/mL"
compound=CCCCCn1c(=O)c(C(=O)NC23CC4CC(CC(C4)C2)C3)c(O)c2nn(CCO)cc21 recorded_result="0.38 µg/mL"
